The values you see were collected from paper PMC3877896.

Test system: HCT-116 human colon cancer cell line
Assay: MTT cytotoxicity assay, HCT-116
Assay type: cell-based
Details: Homo sapiens, HCT-116, 48 h exposure, mean ± SD of three independent experiments
measuredParameter: IC50 (nM)
Return type: number; implicit unit nM.

IC50 on HCT-116 human colon cancer cell line for COc1cccc2c1C(=O)c1c(O)c3c(c(O)c1C2=O)C[C@@](O)(C(=O)CO)C[C@@H]3O[C@H]1C[C@H](N)[C@@H](O)[C@H](C)O1 [epirubicin, reference compound] is 480

====

System: HCT-116 human colon cancer cell line
Experiment: MTT cytotoxicity assay, HCT-116
Assay type: cell-based
Details: 48 h exposure, mean ± SD of three independent experiments
measuredParameter: IC50 (µM)
Return type: number; implicit unit µM.

Record CC(=O)OC[C@]12Oc3ccc(-c4ccc(O)c5c4O[C@@]4(CO)C(=C(O)C[C@@H](C)[C@H]4OC(C)=O)C5=O)c(O)c3C(=O)C1=C(O)C[C@@H](C)[C@H]2OC(C)=O [Compound 8, penexanthone A] , field IC50: 6.92

====

Parameter: IC50 at 48 h. Scope: all listed entries.
Assay: MTT cytotoxicity assay, MCF-10A
Format: cell-based, human
Details: human, MCF-10A cells, 48 h exposure, mean ± SD of three independent experiments
Return type: number; implicit unit µM.

molecule	IC50 at 48 h, µM
CC(=O)OC[C@]12Oc3ccc(-c4ccc(O)c5c4O[C@@]4(CO)C(=C(O)C[C@@H](C)[C@H]4OC(C)=O)C5=O)c(O)c3C(=O)C1=C(O)C[C@@H](C)[C@H]2OC(C)=O [Compound 8, penexanthone A]	16.1

Note: attention shifts to another entry.
Record CC(=O)OC[C@]12Oc3ccc(-c4ccc5c(c4O)C(=O)C4=C(O)C[C@@H](C)[C@@H](OC(C)=O)[C@@]4(COC(C)=O)O5)c(O)c3C(=O)C1=C(O)C[C@@H](C)[C@H]2OC(C)=O [Compound 6, dicerandrol C] , field IC50 at 48 h: 33

====

Parameter: IC50 at 48 h. Scope: all listed entries.
Experiment: MTT cytotoxicity assay, MCF-10A
Format: cell-based, human
Details: human, MCF-10A cells, 48 h exposure, mean ± SD of three independent experiments

compound	IC50 at 48 h
COc1cccc2c1C(=O)c1c(O)c3c(c(O)c1C2=O)C[C@@](O)(C(=O)CO)C[C@@H]3O[C@H]1C[C@H](N)[C@@H](O)[C@H](C)O1 [epirubicin, reference compound]	0.48 µM
CC(=O)OC[C@]12Oc3ccc(-c4ccc5c(c4O)C(=O)C4=C(O)C[C@@H](C)[C@@H](OC(C)=O)[C@@]4(CO)O5)c(O)c3C(=O)C1=C(O)C[C@@H](C)[C@H]2OC(C)=O	8.14 µM
CC(=O)OCC1(C2OC(=O)CC2C)CC(=O)c2c(O)ccc(-c3ccc4c(c3O)C(=O)C3=C(O)CC(C)C(OC(C)=O)C3(CO)O4)c2O1 (centres unmarked)	> 50 µM
CC(=O)O[C@@H]1[C@H](C)CC(O)=C2C(=O)c3c(ccc(-c4ccc5c(c4O)C(=O)C4=C(O)C[C@@H](C)[C@@H](OC(C)=O)[C@@]4(CO)O5)c3O)O[C@@]21CO	28.3 µM

Record CC(=O)OCC1(C2OC(=O)CC2C)CC(=O)c2c(ccc(-c3ccc4c(c3O)C(=O)C3=C(O)CC(C)C(OC(C)=O)C3(CO)O4)c2O)O1 (centres unmarked) , field IC50 at 48 h: > 50 µM

====

Tested on: Calu-3 human lung cancer cell line
Experiment: MTT cytotoxicity assay, Calu-3
Format: cell-based
Conditions: 48 h exposure, mean ± SD of three independent experiments
measuredParameter: pIC50
pIC50 here: minus log base 10 of the concentration, concentration in moles per litre.

Record CC(=O)OC[C@]12Oc3ccc(-c4ccc(O)c5c4O[C@@]4(CO)C(=C(O)C[C@@H](C)[C@H]4OC(C)=O)C5=O)c(O)c3C(=O)C1=C(O)C[C@@H](C)[C@H]2OC(C)=O , field pIC50: 5.19

====

Parameter: pIC50. Scope: all listed entries.
Test system: MDA-MB-435 human breast cancer cell line
Experiment: MTT cytotoxicity assay, MDA-MB-435
Format: cell-based
Settings: 48 h exposure, mean ± SD of three independent experiments
pIC50 here: minus log base 10 of the concentration, concentration in moles per litre.

recordSmiles	pIC50
CC(=O)OC[C@]12Oc3ccc(-c4ccc(O)c5c4O[C@@]4(CO)C(=C(O)C[C@@H](C)[C@H]4OC(C)=O)C5=O)c(O)c3C(=O)C1=C(O)C[C@@H](C)[C@H]2OC(C)=O	5.10

Record CC(=O)OC[C@]12Oc3ccc(-c4ccc5c(c4O)C(=O)C4=C(O)C[C@@H](C)[C@@H](OC(C)=O)[C@@]4(CO)O5)c(O)c3C(=O)C1=C(O)C[C@@H](C)[C@H]2OC(C)=O , field pIC50: 5.06

====

System: Huh7 human liver cancer cell line
Assay: MTT cytotoxicity assay, Huh7
Type: cell-based
Details: Huh-7, 48 h exposure, mean ± SD of three independent experiments
measuredParameter: pIC50
pIC50 here: minus log base 10 of the concentration, concentration in moles per litre.

compound	pIC50
CC(=O)OC[C@]12Oc3ccc(-c4ccc(O)c5c4O[C@@]4(CO)C(=C(O)C[C@@H](C)[C@H]4OC(C)=O)C5=O)c(O)c3C(=O)C1=C(O)C[C@@H](C)[C@H]2OC(C)=O	4.37
CC(=O)O[C@@H]1[C@H](C)CC(O)=C2C(=O)c3c(ccc(-c4ccc(O)c5c4O[C@@]4(CO)C(=C(O)C[C@@H](C)[C@H]4OC(C)=O)C5=O)c3O)O[C@@]21CO	4.53
CC(=O)OC[C@]12Oc3ccc(-c4ccc5c(c4O)C(=O)C4=C(O)C[C@@H](C)[C@@H](OC(C)=O)[C@@]4(CO)O5)c(O)c3C(=O)C1=C(O)C[C@@H](C)[C@H]2OC(C)=O	4.52
CC(=O)O[C@@H]1[C@H](C)CC(O)=C2C(=O)c3c(ccc(-c4ccc5c(c4O)C(=O)C4=C(O)C[C@@H](C)[C@@H](OC(C)=O)[C@@]4(CO)O5)c3O)O[C@@]21CO	5.38

Note: attention shifts to another entry.
Record COc1cccc2c1C(=O)c1c(O)c3c(c(O)c1C2=O)C[C@@](O)(C(=O)CO)C[C@@H]3O[C@H]1C[C@H](N)[C@@H](O)[C@H](C)O1 [epirubicin, reference compound] , field pIC50: 6.02

====

Test system: Calu-3 human lung cancer cell line
Assay: MTT cytotoxicity assay, Calu-3
Assay type: cell-based
Details: Homo sapiens, Calu-3, 48 h, 48 h exposure, mean ± SD of three independent experiments
measuredParameter: log10(IC50) (log10 of the value in µM)
// units: µM (pre-log); metric: IC50; scale: log10

Worked set:
compound	experimentalResult
CC(=O)OC[C@]12Oc3ccc(-c4ccc5c(c4O)C(=O)C4=C(O)C[C@@H](C)[C@@H](OC(C)=O)[C@@]4(COC(C)=O)O5)c(O)c3C(=O)C1=C(O)C[C@@H](C)[C@H]2OC(C)=O [Compound 6, dicerandrol C]	1.56
CC(=O)OCC1(C2OC(=O)CC2C)CC(=O)c2c(O)ccc(-c3ccc4c(c3O)C(=O)C3=C(O)CC(C)C(OC(C)=O)C3(CO)O4)c2O1 (stereo not drawn) [Compound 1, Phomolactonexanthone A]	1.64
CC(=O)O[C@@H]1[C@H](C)CC(O)=C2C(=O)c3c(ccc(-c4ccc5c(c4O)C(=O)C4=C(O)C[C@@H](C)[C@@H](OC(C)=O)[C@@]4(CO)O5)c3O)O[C@@]21CO [Compound 4, dicerandrol A]	0.25

log10(IC50) on Calu-3 human lung cancer cell line for CC(=O)O[C@@H]1[C@H](C)CC(O)=C2C(=O)c3c(ccc(-c4ccc(O)c5c4O[C@@]4(CO)C(=C(O)C[C@@H](C)[C@H]4OC(C)=O)C5=O)c3O)O[C@@]21CO [Compound 7, deacetylphomoxanthone B] is 0.62

log10(IC50) on Calu-3 human lung cancer cell line for CC(=O)O[C@@H]1[C@H](C)CC(O)=C2C(=O)c3c(O)ccc(-c4ccc(O)c5c4O[C@@]4(CO)C(=C(O)C[C@@H](C)[C@H]4OC(C)=O)C5=O)c3O[C@@]21CO [Compound 3, Deacetylphomoxanthone C] is 1.64
